src = patent US20070219186A1

Biological target: human B-Raf (Homo sapiens)
Construct: Flag; GST; made in house; host or cells: Sf9 insect cells (B-Raf); E. coli (MEK1-GST)
Sequence (P15056 whole entry): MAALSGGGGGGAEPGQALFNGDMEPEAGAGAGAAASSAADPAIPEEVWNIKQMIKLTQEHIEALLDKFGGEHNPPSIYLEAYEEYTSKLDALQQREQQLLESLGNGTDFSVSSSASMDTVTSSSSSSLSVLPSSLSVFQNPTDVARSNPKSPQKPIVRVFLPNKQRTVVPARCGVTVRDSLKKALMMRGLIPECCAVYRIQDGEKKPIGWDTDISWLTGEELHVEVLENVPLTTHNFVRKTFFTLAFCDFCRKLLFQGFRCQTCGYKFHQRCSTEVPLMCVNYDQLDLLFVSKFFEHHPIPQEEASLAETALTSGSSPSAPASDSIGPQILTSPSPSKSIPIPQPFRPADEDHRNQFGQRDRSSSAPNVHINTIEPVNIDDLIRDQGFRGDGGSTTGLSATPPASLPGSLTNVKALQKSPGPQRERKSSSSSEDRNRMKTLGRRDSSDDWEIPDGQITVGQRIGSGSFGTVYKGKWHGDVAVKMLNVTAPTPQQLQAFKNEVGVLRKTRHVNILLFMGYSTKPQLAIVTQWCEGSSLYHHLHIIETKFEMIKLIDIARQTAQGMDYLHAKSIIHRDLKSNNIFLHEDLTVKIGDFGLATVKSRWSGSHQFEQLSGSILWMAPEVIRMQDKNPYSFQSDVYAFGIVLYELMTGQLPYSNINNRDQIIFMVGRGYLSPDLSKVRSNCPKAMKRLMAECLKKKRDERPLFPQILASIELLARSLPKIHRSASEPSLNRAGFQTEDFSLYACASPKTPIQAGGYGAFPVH
Assay: B-Raf Kinase to MEK1 ELISA
Format: biochemical
Conditions: read-out: % Inhib./10 uM
Method: TITLE: B-Raf Kinase to MEK1 ELISA PURPOSE: To discover B-Raf Kinase inhibitors that can inhibit growth of tumor cells which contain oncogenic forms of Receptor Tyrosine Kinases or K-Ras, or B-Raf kinase. […] B-Raf-1 is used to phosphorylate GST-MEK1. MEK1 phosphorylation is measured by a phospho-specific antibody (from Cell Signaling Technology, cat. #9121) that detects phosphorylation of two serine residues at positions 217 and 221 on MEK1. […] 11. Read plates in Wallac Victor model Plate Reader. […]
Quantity kind: inhibition at 10 µM (%)
Express the result in % but write the number alone.

Here is how some molecules turned out for inhibition at 10 µM.
Cc1ccc(C(=O)Nc2cccc(-c3ccnc4c(-c5cccc(C(=O)N(C)C)c5)cnn34)c2)cc1C(F)(F)F ... 84
O=C(Nc1cccc(-c2ccnc3cc(-c4ccncc4)nn23)c1)c1nccc2ccccc12 ... 44
CCOC(=O)c1cnn2c(-c3cccc(NC(=O)Nc4cc(C)no4)c3)ccnc12 ... 15

Look up inhibition at 10 µM for this molecule: O=C(Nc1cccc(-c2ccnc3cc(N4CCOCC4)nn23)c1)Nc1ccc(Cl)c(Cl)c1
96

Endpoint output: inhibition at 10 µM of Cc1ccc(C(=O)Nc2cccc(-c3ccnc4c(-c5cccc(C#N)c5)cnn34)c2)cc1C(F)(F)F . Value?
29
